# Tested on: CAKI-1 renal
# Protocol Notes: NCI-60 one-dose screen, 48 h (100 = growth as untreated, 0 = no growth, -100 = all killed)
# Measurement Conditions: 10 µM unless noted
This is part of a sample that, as a whole, favours compounds with a hit. Of some 83,000 tested, about 20% had one in any assay. The source made the active and inactive calls. How the source made its calls: active means growth percent below 10; inactive means the rest.

Compound: O=C1[C@H]2Cc3c([nH]c4ccccc34)[C@@H](c3ccc(Br)cc3)N2C(=O)CN1C1CCN(Cc2ccccc2)CC1
growth: 44.9% (inactive)

Compound: O=C(c1ccc(O)cc1)C1[C@H](c2ccc(Cl)cc2)[C@@H](c2ccccc2)NC12C(=O)Nc1ccc(Cl)cc12 (some centres undefined)
growth: 29.5% (inactive)

Compound: O=C(N/N=C/c1ccc(Br)s1)c1[nH]c2ccc(Br)cc2c1-c1ccccc1
growth: 22.8% (inactive)

Compound: CS(=O)(=O)c1ccc(-c2nc3ccccn3c2/C=N/Nc2nc(-c3ccc(Cl)cc3)cs2)cc1
growth: 91.8% (inactive)

Compound: CNC(=O)c1cc(-c2ccc(NC(=O)Nc3ccc(N4CCN(C)CC4)c(C(F)(F)F)c3)cc2)nc2cccnc12
growth: -80.4% (active)

Compound: CN1CCN(Cc2ccc(NC(=O)c3cncc(C#Cc4cnc5[nH]ncc5c4)c3)cc2C(F)(F)F)CC1
growth: -13.2% (active)

Compound: CN(C)c1ccc(/C=c2\sc3nc4ccccc4n3c2=O)cc1
growth: 93.3% (inactive)

Compound: Nc1cc(-c2c[nH]c3ccc(F)cc23)nc2cc(-c3c[nH]c4ccc(F)cc34)nn12
growth: 77.8% (inactive)

Compound: c1ccc(CNc2ncnc3ccc(-c4cnc5[nH]ncc5c4)cc23)cc1
growth: 36.3% (inactive)

* * *

# Test system: RPMI-8226 leukemia
# Protocol Notes: NCI-60 one-dose screen, 48 h
# Measurement Conditions: 10 µM unless noted
Compounds without any hit were thinned out: in the full panel of roughly 83,000, 20% have a hit. Activity calls are given as the source filed them. How the source made its calls: active means growth percent below 10; inactive means the rest.
Labels: class 1 (active), class 0 (inactive)

Smiles Record: COc1ccc(Cc2nn(CC(=O)N/N=C/c3ccc(Cl)cc3)c(=O)c3c(C)noc23)cc1
Category: class 0
--
Smiles Record: CC(C)(C)Nc1nc2c(OCCc3ccccc3)cccn2c1-c1cccc(F)c1
Category: class 1
--
Smiles Record: COc1cc(/C=C/C(=O)c2ccc(C)cc2)ccc1Oc1nc(NCCO)nc(N2CCOCC2)n1
Category: class 1

* * *

# Test system: HT29 colon
# Protocol Notes: NCI-60 one-dose screen, 48 h (100 = growth as untreated, 0 = no growth, -100 = all killed)
# Measurement Conditions: 10 µM unless noted
This is part of a sample that, as a whole, favours compounds with a hit. Of some 83,000 tested, about 20% had one in any assay.
# Lookup of reported growth keyed by entry

Compound: CCCCN1C(=O)/C(=c2\sc3n(c2=O)C2C(NN=3)N(CC)C(=O)N2CC)c2cc(Cl)ccc21 (stereo not given)
growth [%]: 88.4

Compound: COc1ccc(C(=O)c2cc(C(=O)/C=C/c3c(Cl)cccc3Cl)c3cc(C)ccn23)cc1
growth [%]: 103

Compound: OC1CCN(CCCOc2c3ccc(Cl)cc3nc3c2oc2ccccc23)CC1
growth [%]: -44.3

Compound: COc1cc(-c2ccc3ncnc(NC(C)c4ccccc4)c3c2)cnc1OC (stereo not given)
growth [%]: 65

Compound: N#Cc1nc(-c2ccccc2)oc1N1CC[C@@H](CO)C1
growth [%]: 107
